λcrit: recorded values
Experiment: UV absorbance spectrum in solution (λmax, λcrit, extinction coefficients)
Format: physicochemical
Conditions: critical wavelength
Give the value in nm but do not write nm after it.

compound	λcrit (nm)
COC(=O)c1ccc2c(c1)CCN2/C=C(/C(=O)c1cccc(C)c1)c1ccccc1 [Compound 286]	389

Turning now to a further compound:
q: Need λcrit of CCCCC(CC)COC(=O)c1cccc(N(/C=C(/C(=O)C(F)(F)F)c2ccccc2)CC)c1 (stereo not shown) [Compound 232] , thanks.
a: 368

###

Experiment: UV absorbance spectrum in solution (λmax, λcrit, extinction coefficients)
Format: physicochemical
Settings: mass extinction coefficient
Recorded E (1%, 1 cm) for the following molecules
// no unit, no text: just the number

Here is how some molecules turned out for E (1%, 1 cm).
molecule	E (1%, 1 cm)
CN(C)/C=C(/C(=O)c1ccccc1)c1ccccc1	776
CCCCC(CC)COc1cccc(N(/C=C(\C(=O)C(F)(F)F)c2ccccc2)CC)c1 (stereo not shown)	490
CC1CCc2ccccc2N1/C=C(\C(=O)C(F)(F)F)c1ccccc1 (stereo not shown)	837

Moving on to the next molecule.
q: Dear colleague, I am looking for the recorded E (1%, 1 cm) of the following molecule: `O=C(/C(=C\N1CCc2ccccc2C1)c1ccccc1)C(F)(F)F`
a: 687

###

Assay: UV absorbance spectrum in solution (λmax, λcrit, extinction coefficients)
Format: physicochemical
Conditions: molar extinction coefficient; in M-1 cm-1 (unit assumed)
Class (by ε) -- interval 1: < 20000; interval 2: ≥ 20000 and < 30000; interval 3: ≥ 30000

compound	class.name
COc1ccccc1C(=O)/C(=C/N(c1ccccc1)c1ccccc1)c1ccccc1	interval 2
CCN(/C=C(/C(=O)c1ccc(S(=O)(=O)N(C)C)cc1)c1ccccc1)c1ccccc1	interval 1

Now take the following compound into account.
q: For this compound, which bin applies? `Cc1ccccc1C(=O)/C(=C/N(c1ccccc1)c1ccccc1)c1ccccc1`
a: interval 2

###

Reported λmax values for a set of compounds
Assay: UV absorbance spectrum in solution (λmax, λcrit, extinction coefficients)
Assay type: physicochemical
# answer = value followed by unit

These recorded examples may help you get a feel for the data.
compound	assay.metric	test.value
Cc1ccccc1N(/C=C(\C(=O)C(F)(F)F)c1ccccc1)c1ccccc1 [Compound 223]	λmax	344 nm
CCN(/C=C(\C(=O)C(F)(F)F)c1ccccc1)c1cccc2ccccc12 [Compound 189]	λmax	324 nm
COC(=O)c1ccc(N(/C=C(\C(=O)C(F)(F)F)c2ccccc2)c2ccccc2)cc1 [Compound 229]	λmax	356 nm
CCN(CC)C(=O)C(=O)/C(=C/N1CCc2cc(C(=O)OC)ccc21)c1ccccc1 [Compound 290]	λmax	370 nm
CC(C)(C)C(=O)/C(=C/N(c1ccccc1)c1ccccc1)c1ccccc1 [Compound 294]	λmax	344 nm

q: λmax for COC(=O)c1ccc2c(c1)CCN2/C=C(/C(=O)c1ccccc1)c1ccccc1 [Compound 247] ?
a: 371 nm

###

Experiment: % transmission spectrum of 0.1% solution (breakthrough, steepness)
Assay type: physicochemical
Settings: value in nm where transmittance increases beyond 1%; 0.1% solution
assay.metric: Breakthrough (1% T at 0.1%) (nm)
Number in nm, nothing else.

compound	Breakthrough (1% T at 0.1%) / nm
CCN(CC)C(=O)C(=O)/C(=C/N1CCc2cc(C(=O)OC)ccc21)c1ccccc1	412
N#CCC(=O)/C(=C\N1CCc2ccccc21)c1ccccc1	405
CCN(/C=C(/C(=O)c1ccc(S(=O)(=O)N(C)C)cc1)c1ccccc1)c1ccccc1	403

q: Reported Breakthrough (1% T at 0.1%) for `Cc1ccccc1C(=O)/C(=C/N1CCc2ccccc21)c1ccccc1` : what is it?
a: 399

q: What do we get for CCCCC(CC)COC(=O)c1ccc(N(/C=C(\C(=O)C(F)(F)F)c2ccccc2)c2ccccc2)cc1 (centres unmarked) ?
a: 398

q: What do you get for `CC(C)(C)C(=O)/C(=C/N(c1ccccc1)c1ccccc1)c1ccccc1` ?
a: 383

q: Another compound to check: `O=C(/C(=C\N1CCc2ccccc21)c1ccccc1)C(F)(F)F`
a: 418

###

Assay: UV absorbance spectrum in solution (λmax, λcrit, extinction coefficients)
Format: physicochemical
Details: mass extinction coefficient
assay.metric: E (1%, 1 cm)

Example results:
compound	test.value
Cc1cc(C)c(C(=O)/C(=C/N2CCc3ccccc32)c2ccccc2)c(C)c1 [Compound 253]	929
Cc1ccccc1C(=O)/C(=C/N(c1ccccc1)c1ccccc1)c1ccccc1 [Compound 250]	738
COC(=O)c1ccc2c(c1)CCN2/C=C(/C(=O)C(=O)Oc1ccccc1)c1ccccc1 [Compound 281]	703
CCN(/C=C(\C(=O)C(F)(F)C(F)(F)C(F)(F)F)c1ccccc1)c1ccccc1 [Compound 191]	452
O=C(C(=O)N1CCc2ccccc21)/C(=C/N1CCc2ccccc21)c1ccccc1 [Compound 277]	872

q: Could you share which E (1%, 1 cm) value was measured for COC(=O)c1ccc2c(c1)CCN2C=C(C(=O)C(C)(C)C)c1ccc(C(C)(C)C)cc1 [Compound 296] ?
a: 1213

###

Catalogue of λcrit values
Assay: UV absorbance spectrum in solution (λmax, λcrit, extinction coefficients)
Assay type: physicochemical
Settings: critical wavelength
Use nm as the unit, but write only the number.

chem.smiles	assay.metric	u	test.value
CCCN(/C=C(\C(=O)C(F)(F)F)c1ccccc1)c1ccc(N(/C=C(\C(=O)C(F)(F)F)c2ccccc2)CCC)cc1	λcrit	nm	378

q: Reported λcrit, molecule `CCN(/C=C(\C(=O)C(F)(F)C(F)(F)C(F)(F)C(=O)/C(=C\N(CC)c1ccccc1)c1ccccc1)c1ccccc1)c1ccccc1` : ____
a: 370

q: // query: `COc1ccccc1C(=O)/C(=C/N1CCc2ccccc21)c1ccccc1`
a: 383

###

The entries below come with measured Steepness values attached.
Experiment: % transmission spectrum of 0.1% solution (breakthrough, steepness)
Format: physicochemical
Details: distance in nm over which transmittance increases from 1 to 80%
Source text: FIG. 2 is a is a graphical representation of the % transmission of compounds 142 and 143 measured in a 2 mm cuvette as 0.1% solutions in methanol (142 is the left most trace); […]
Express it in nm; write the number only.

Previously resolved entries follow.
molecule	u	test.value
Cc1ccccc1C(=O)/C(=C/N(c1ccccc1)c1ccccc1)c1ccccc1	nm	37
CCCCCCC(=O)C1=CN(c2ccc(N3C=C(C(=O)CCCCCC)C(C)(C)CC3)cc2)CCC1(C)C [Compound 129, reference compound]	nm	20
CCN(/C=C(/C(=O)c1c(C)cc(C)cc1C)c1ccccc1)c1ccccc1	nm	34
COc1ccccc1C(=O)/C(=C/N1CCc2ccccc21)c1ccccc1	nm	30

q: // Steepness lookup, key: `COC(=O)c1ccc2c(c1)CCN2/C=C(\C(=O)C(F)(F)F)c1ccccc1`
a: 18

###

Assay: UV absorbance spectrum in solution (λmax, λcrit, extinction coefficients)
Assay type: physicochemical
Settings: mass extinction coefficient
assay.metric: E (1%, 1 cm)
Respond with the number and no other words.

compound	E (1%, 1 cm)
CCN(/C=C(/C(=O)c1c(C)cc(C)cc1C)c1ccccc1)c1ccccc1	798
CCCCC(CC)COC(=O)c1ccc2c(c1)CCN2/C=C(/C(=O)c1ccncc1)c1ccccc1 (stereo not shown)	796
O=C(/C(=C\N1CCCc2ccccc21)c1ccccc1)C(F)(F)F	811

q: Requested read-out: E (1%, 1 cm). Entry: CCCCC(CC)COC(=O)c1ccc2c(c1)CCN2/C=C(/C(=O)C(C)(C)C)c1ccc(Br)cc1 (stereo not shown)
a: 780

q: And for `O=C(/C(=C\N1CCCC1)c1ccccc1)C(F)(F)F` ?
a: 769

q: Also `COC(=O)c1ccc(N(/C=C(\C(=O)C(F)(F)F)c2ccccc2)c2ccccc2)cc1` , if possible.
a: 786

q: Record: `CCN(/C=C(/C(=O)c1ccccc1C)c1ccccc1)c1ccccc1`
a: 771

q: Also `O=C(OCCCOC(=O)c1ccc2c(c1)CCN2/C=C(\C(=O)C(F)(F)F)c1ccccc1)c1ccc2c(c1)CCN2/C=C(\C(=O)C(F)(F)F)c1ccccc1` ?
a: 1168

###

Test: UV absorbance spectrum in solution (λmax, λcrit, extinction coefficients)
Format: physicochemical
Conditions: mass extinction coefficient
Reported E (1%, 1 cm) values for a set of molecules
Respond using a number only.

chem.smiles	E (1%, 1 cm)
Cc1ccc(C(=O)/C(=C/N2CCc3ccccc32)c2ccccc2)cc1	887
O=C(/C(=C\N1CCc2ccc([N+](=O)[O-])cc21)c1ccccc1)C(F)(F)F	903

With those in mind, consider the next molecule.
q: Which E (1%, 1 cm) value is on record for `O=C(/C(=C\N1CCCCC1)c1ccccc1)C(F)(F)F` ?
a: 884

###

Assay: UV absorbance spectrum in solution (λmax, λcrit, extinction coefficients)
Assay type: physicochemical
Settings: critical wavelength
assay.metric: λcrit (nm)
Kindly provide the numeric value in nm only, without the unit symbol.

The following compounds have reported results that may help.
compound	u	λcrit
CCCCC(CC)COC(=O)c1ccc2c(c1)CCN2C=C(C(=O)C(C)(C)C)c1ccccc1 (centres unmarked)	nm	384
CCN(/C=C(/C(=O)C(=O)N(C)C)c1ccccc1)CC	nm	342
CCN(CC)C(=O)C(=O)/C(=C/N1CCc2cc(C(=O)OC)ccc21)c1ccccc1	nm	389
CCCCC(CC)COC(=O)c1ccc2c(c1)CCN2/C=C(/C(=O)C(C)(C)C)c1ccc(Br)cc1 (centres unmarked)	nm	384
COC(=O)c1ccc2c(c1)CCN2/C=C(/C(=O)c1ccccc1)c1ccccc1	nm	389

q: Could you share which λcrit value was measured for `CCN(/C=C(\C(=O)C(F)(F)F)c1ccccc1)c1ccccc1C` ?
a: 354

q: Would you mind doing `Cc1ccccc1N(/C=C(\C(=O)C(F)(F)F)c1ccccc1)c1ccccc1` as well?
a: 377
